system: Blumeria graminis f. sp. tritici; test: Test F: preventive spray on wheat seedlings, visual disease rating (wheat powdery mildew); assay type: in vivo; settings: asterisk: 40 ppm test suspension
Marks after values point to notes of the source that are not given here.
quantity.kind: Test F rating (% disease control)

{"molecule": "Cc1nn(C)c(-c2ccc(F)cc2Br)c1C(=O)c1ccc(F)cc1F", "result": "34* %"}
{"molecule": "Cc1nn(C)c(-c2ccc(F)cc2Cl)c1Nc1ccc(Cl)cc1Cl", "result": "100* %"}
{"molecule": "COc1nn(C)c(-c2c(F)cccc2Cl)c1C(O)c1ccc(F)cc1C (centres unmarked)", "result": "100* %"}
{"molecule": "COc1nn(C)c(-c2c(F)cccc2F)c1C(O)c1c(F)ccc(F)c1F (centres unmarked)", "result": "93* %"}
{"molecule": "Cc1nn(C)c(-c2c(Cl)cncc2Cl)c1C(=O)c1ccc(F)cc1Cl", "result": "26* %"}

* * *

Parameter: Test F rating (% disease control). Scope: all listed entries.
test system: Blumeria graminis f. sp. tritici; test: Test F: preventive spray on wheat seedlings, visual disease rating (wheat powdery mildew); assay type: in vivo; conditions: no asterisk: standard test suspension, not 40 ppm

{"molecule": "Cc1nn(C)c(-c2c(F)cccc2F)c1Nc1ccc(F)cc1Cl", "unit.abbreviation": "%", "Test F rating (% disease control)": 98}
{"molecule": "Cc1nn(C)c(-c2c(F)cc(F)cc2F)c1C(=O)c1ccc(F)cc1Cl", "unit.abbreviation": "%", "Test F rating (% disease control)": 100}
{"molecule": "Cc1nn(C)c(-c2ccc(F)cc2Br)c1C(O)c1c(F)cc(F)cc1F (centres unmarked)", "unit.abbreviation": "%", "Test F rating (% disease control)": 100}
{"molecule": "Cc1nn(C)c(-c2ccccc2Br)c1C(=O)c1ccc(F)cc1Cl", "unit.abbreviation": "%", "Test F rating (% disease control)": 99}
{"molecule": "Cn1nc(Br)c(C(O)c2ccc(F)cc2F)c1-c1c(F)cccc1Cl (centres unmarked)", "unit.abbreviation": "%", "Test F rating (% disease control)": 98}
{"molecule": "Cn1nc(Cl)c(C(O)c2ccc(F)cc2Cl)c1-c1c(F)cccc1Cl (centres unmarked)", "unit.abbreviation": "%", "Test F rating (% disease control)": 99}
{"molecule": "Cc1nn(C)c(-c2c(F)cccc2Cl)c1C(O)c1ccc(F)cc1F (centres unmarked)", "unit.abbreviation": "%", "Test F rating (% disease control)": 100}
{"molecule": "Cc1nn(C)c(-c2c(F)cccc2F)c1C(=O)c1ccc(F)cc1F", "unit.abbreviation": "%", "Test F rating (% disease control)": 96}
{"molecule": "Cc1nn(C)c(-c2c(F)cccc2F)c1Nc1ccc(Cl)cc1Cl", "unit.abbreviation": "%", "Test F rating (% disease control)": 100}
{"molecule": "Cc1nn(C)c(-c2c(F)cc(C#N)cc2F)c1C(O)c1ccc(F)cc1F (centres unmarked)", "unit.abbreviation": "%", "Test F rating (% disease control)": 97}
{"molecule": "Cc1nn(C)c(-c2c(F)cccc2Cl)c1C(O)c1ccc(Cl)cc1Cl (centres unmarked)", "unit.abbreviation": "%", "Test F rating (% disease control)": 100}

* * *

system: Blumeria graminis f. sp. tritici; assay: Test F: preventive spray on wheat seedlings, visual disease rating (wheat powdery mildew); type: in vivo; details: no asterisk: standard test suspension, not 40 ppm
Parameter: Test F rating (% disease control). Scope: all listed entries.
quantity.kind: Test F rating (% disease control) (%)

{"molecule": "COc1nn(C)c(-c2ccc(F)cc2Cl)c1C(O)c1ccc(F)cc1Cl (stereo not shown) [compound 118]", "tested.target": "Blumeria graminis f. sp. tritici", "quantity.kind": "Test F rating (% disease control)", "result.number": 100}
{"molecule": "Cc1nn(C)c(-c2ccc(F)cc2F)c1Oc1ccc(F)cc1F [compound 13]", "tested.target": "Blumeria graminis f. sp. tritici", "quantity.kind": "Test F rating (% disease control)", "result.number": 72}
{"molecule": "Cc1nn(C)c(-c2ccccc2Br)c1C(O)c1ccc(F)cc1Cl (single isomer, unassigned) [compound 80]", "tested.target": "Blumeria graminis f. sp. tritici", "quantity.kind": "Test F rating (% disease control)", "result.number": 99}
{"molecule": "Cc1nn(C)c(-c2ccc(F)cc2Cl)c1C(O)c1c(F)cc(F)cc1F (stereo not shown) [compound 19]", "tested.target": "Blumeria graminis f. sp. tritici", "quantity.kind": "Test F rating (% disease control)", "result.number": 100}
{"molecule": "Cc1nn(C)c(-c2ccc(F)cc2Cl)c1Nc1ccc(F)cc1Cl [compound 42]", "tested.target": "Blumeria graminis f. sp. tritici", "quantity.kind": "Test F rating (% disease control)", "result.number": 100}
{"molecule": "Cc1nn(C)c(-c2ccc(F)cc2Cl)c1Oc1ccc(C#N)cc1Cl [compound 43]", "tested.target": "Blumeria graminis f. sp. tritici", "quantity.kind": "Test F rating (% disease control)", "result.number": 97}
{"molecule": "Cc1nn(C)c(-c2c(F)cccc2F)c1C(O)c1ccc(F)cc1Br (stereo not shown) [compound 21]", "tested.target": "Blumeria graminis f. sp. tritici", "quantity.kind": "Test F rating (% disease control)", "result.number": 98}

* * *

test system: Blumeria graminis f. sp. tritici; experiment: Test F: preventive spray on wheat seedlings, visual disease rating (wheat powdery mildew); assay type: in vivo; conditions: no asterisk: standard test suspension, not 40 ppm

{"compound": "Cn1nc(Br)c(C(O)c2ccc(F)cc2Br)c1-c1c(F)cccc1Cl (stereo not shown)", "tested.target": "Blumeria graminis f. sp. tritici", "Test F rating (% disease control)": "100%"}
{"compound": "Cc1nn(C)c(-c2ccc(F)cc2Br)c1C(O)c1ccc(F)cc1F (stereo not shown)", "tested.target": "Blumeria graminis f. sp. tritici", "Test F rating (% disease control)": "100%"}
{"compound": "Cc1nn(C)c(-c2c(F)cccc2Cl)c1C(O)c1c(F)cc(F)cc1F (stereo not shown)", "tested.target": "Blumeria graminis f. sp. tritici", "Test F rating (% disease control)": "100%"}
{"compound": "COc1nn(C)c(-c2c(F)cc(F)cc2F)c1C(O)c1ccccc1F (stereo not shown)", "tested.target": "Blumeria graminis f. sp. tritici", "Test F rating (% disease control)": "100%"}
{"compound": "Cc1nn(C)c(-c2ccc(Cl)cc2Cl)c1C(O)c1ccc(F)cc1Cl (stereo not shown)", "tested.target": "Blumeria graminis f. sp. tritici", "Test F rating (% disease control)": "99%"}
{"compound": "Cc1nn(C)c(-c2c(Cl)cccc2Cl)c1C(O)c1c(F)cc(F)cc1F (stereo not shown)", "tested.target": "Blumeria graminis f. sp. tritici", "Test F rating (% disease control)": "99%"}
{"compound": "Cc1nn(C)c(-c2ccc(F)cc2I)c1C(O)c1ccc(F)cc1Cl (single isomer, unassigned)", "tested.target": "Blumeria graminis f. sp. tritici", "Test F rating (% disease control)": "95%"}
{"compound": "Cc1nn(C)c(-c2c(F)cccc2F)c1C(O)c1ccc(F)cc1Cl (single isomer, unassigned) [compound 86]", "tested.target": "Blumeria graminis f. sp. tritici", "Test F rating (% disease control)": "100%"}
{"compound": "Cc1nn(C)c(-c2c(F)cccc2F)c1C(F)c1ccc(F)cc1Cl (stereo not shown)", "tested.target": "Blumeria graminis f. sp. tritici", "Test F rating (% disease control)": "99%"}
{"compound": "Cc1nn(C)c(-c2c(F)cccc2F)c1C(O)c1ccc(F)cc1Cl (single isomer, unassigned) [compound 87]", "tested.target": "Blumeria graminis f. sp. tritici", "Test F rating (% disease control)": "99%"}
{"compound": "Cn1nc(C#N)c(C(=O)c2ccc(F)cc2Cl)c1-c1c(F)cccc1F", "tested.target": "Blumeria graminis f. sp. tritici", "Test F rating (% disease control)": "100%"}
{"compound": "Cn1nc(Br)c(C(O)c2ccc(F)cc2Cl)c1-c1c(F)cccc1Cl (stereo not shown)", "tested.target": "Blumeria graminis f. sp. tritici", "Test F rating (% disease control)": "99%"}
{"compound": "Cc1cc(F)ccc1C(O)c1c(Br)nn(C)c1-c1c(F)cccc1Cl (stereo not shown)", "tested.target": "Blumeria graminis f. sp. tritici", "Test F rating (% disease control)": "100%"}

* * *

Parameter: Test E2 rating (% disease control). Scope: all listed entries.
tested on: Puccinia recondite f. sp. tritici; test: Test E2: preventive spray on wheat seedlings, visual disease rating (wheat leaf rust); format: in vivo; conditions: asterisk: 40 ppm test suspension
Marks after values point to notes of the source that are not given here.

{"compound": "COc1nn(C)c(-c2c(F)cc(F)cc2Cl)c1C(O)c1ccc(F)cc1Cl (stereo not shown) [compound 141]", "Test E2 rating (% disease control)": "99* %"}
{"compound": "COc1ccc(C(O)c2c(C)nn(C)c2-c2c(F)cccc2Cl)c(Cl)c1 (stereo not shown) [compound 170]", "Test E2 rating (% disease control)": "100* %"}
{"compound": "Cn1nc(Br)c(C(O)c2ccc(F)cc2Br)c1-c1c(F)cccc1Cl (stereo not shown) [compound 132]", "Test E2 rating (% disease control)": "99* %"}
{"compound": "Cc1nn(C)c(-c2ccc(F)cc2)c1C(O)c1ccc(F)cc1Cl (stereo not shown) [compound 105]", "Test E2 rating (% disease control)": "98* %"}
{"compound": "Cc1nn(C)c(-c2c(Cl)cncc2Cl)c1C(O)c1ccc(F)cc1Cl (stereo not shown) [compound 98]", "Test E2 rating (% disease control)": "100* %"}
{"compound": "COc1cc(F)c(-c2c(C(O)c3ccc(F)cc3F)c(C)nn2C)c(F)c1 (stereo not shown) [compound 172]", "Test E2 rating (% disease control)": "100* %"}
{"compound": "COc1ccc(C(O)c2c(OC)nn(C)c2-c2c(F)cccc2Cl)c(F)c1 (stereo not shown) [compound 143]", "Test E2 rating (% disease control)": "99* %"}
{"compound": "Cc1nn(C)c(-c2c(F)cccc2Cl)c1C(SC#N)c1ccc(F)cc1F (stereo not shown) [Compound 122]", "Test E2 rating (% disease control)": "100* %"}
{"compound": "COc1ccc(C(O)c2c(OC)nn(C)c2-c2c(F)cccc2F)c(F)c1 (stereo not shown) [compound 161]", "Test E2 rating (% disease control)": "92* %"}
{"compound": "Cc1cc(F)ccc1C(O)c1c(C)nn(C)c1-n1ccnc1C (stereo not shown) [compound 147]", "Test E2 rating (% disease control)": "17* %"}

Recorded values, source patent US8754115B2.
